Several publications report pIC50 on Galectin-3 (Homo sapiens, UniProt P17931); those values are gathered here.
Sequence (P17931 whole entry): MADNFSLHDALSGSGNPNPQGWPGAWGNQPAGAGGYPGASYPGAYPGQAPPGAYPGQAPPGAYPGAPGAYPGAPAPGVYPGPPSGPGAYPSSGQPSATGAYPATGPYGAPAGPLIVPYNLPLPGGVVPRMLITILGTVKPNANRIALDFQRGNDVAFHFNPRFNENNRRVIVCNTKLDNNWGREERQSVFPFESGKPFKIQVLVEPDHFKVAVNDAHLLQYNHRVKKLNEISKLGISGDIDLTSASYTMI
Give bare numbers, as −log10 of the molar value.

Some solved cases for reference:
INSERT INTO measurements (compound, target_under_test, readout_value) VALUES
  ('CO[C@@H]1[C@@H](n2cc(-c3cc(F)c(Cl)c(Cl)c3)nn2)[C@@H](O)[C@@H](CO)O[C@H]1C(=O)N(c1cc(Br)cc(C#N)c1)[C@H]1CCC[C@@H]1O', 'Galectin-3 (Homo sapiens, UniProt P17931)', 7.33),
  ('CO[C@@H]1[C@@H](n2cc(-c3ccc(C)c(F)c3F)nn2)[C@@H](O)[C@@H](CO)O[C@@H]1CC1=NO[C@]2(CC[C@@H](C#N)CC2)C1', 'Galectin-3 (Homo sapiens, UniProt P17931)', 6.92),
  ('CO[C@@H]1[C@@H](n2cc(-c3ccc(Cl)c(F)c3F)nn2)[C@@H](O)[C@@H](CO)O[C@H]1C(=O)N(c1cc(Cl)cc(C#N)c1)[C@@H]1CCC[C@H]1O', 'Galectin-3 (Homo sapiens, UniProt P17931)', 7.05),
  ('CO[C@@H]1[C@@H](n2cc(-c3cc(F)c(F)c(F)c3)nn2)[C@@H](O)[C@@H](CO)O[C@@H]1Cc1cc(C2CCN(C(=O)NC(C)(C)C)CC2)on1', 'Galectin-3 (Homo sapiens, UniProt P17931)', 7.51),
  ('CO[C@@H]1[C@@H](n2cc(-c3cc(F)c(F)c(F)c3)nn2)[C@@H](O)[C@@H](CO)O[C@@H]1CC1CN(C2CCN(C(=O)OC(C)(C)C)CC2)C(=O)O1 (mixture of isomers)', 'Galectin-3 (Homo sapiens, UniProt P17931)', 7.08),
  ('CO[C@@H]1[C@@H](n2cc(-c3cc(F)c(F)c(F)c3)nn2)[C@@H](O)[C@@H](CO)O[C@H]1C(=O)N(c1ccc2nc(Cl)sc2c1)[C@H]1CCCC[C@@H]1O', 'Galectin-3 (Homo sapiens, UniProt P17931)', 6.50),
  ('OC[C@H]1O[C@H](C[C@@H]2CC(C3CCCCC3)=NO2)[C@H](O)[C@@H](n2cc(-c3cc(F)c(F)c(F)c3)nn2)[C@H]1O', 'Galectin-3 (Homo sapiens, UniProt P17931)', 6.28),
  ('CO[C@@H]1[C@@H](n2cc(-c3cc(F)c(F)c(F)c3)nn2)[C@@H](O)[C@@H](CO)O[C@H]1C(=O)N(c1cc(F)cc(Br)c1)[C@H]1CCCC[C@@H]1O', 'Galectin-3 (Homo sapiens, UniProt P17931)', 7.68);

Could you report pIC50 for every entry in the following list?
1. O=C([C@@H]1O[C@H](CO)[C@H](O)[C@H](n2cc(-c3cc(F)c(F)c(F)c3)nn2)[C@H]1O)N(Cc1ccc(Cl)s1)[C@H]1CCCC[C@@H]1O
2. COC1CCC(N2C[C@@H](C[C@H]3O[C@H](CO)[C@H](O)[C@H](n4cc(-c5cc(F)c(F)c(F)c5)nn4)[C@H]3OC)OC2=O)CC1 (mixture of isomers)
3. CO[C@@H]1[C@@H](n2cc(-c3ccc(Cl)c(F)c3)nn2)[C@@H](O)[C@@H](CO)O[C@@H]1Cc1cc(C2CCN(S(C)(=O)=O)CC2)on1
4. CC(C)(C)OC(=O)N1CCC(C2=NOC(C[C@H]3O[C@H](CO)[C@H](O)[C@H](n4cc(-c5nc6ccccc6s5)nn4)[C@H]3O)C2)CC1 (stereo partly drawn)
5. CCC(=O)O[C@@H]1[C@@H](n2cc(-c3cc(F)c(F)c(F)c3)nn2)[C@@H](O)[C@@H](CO)O[C@@H]1Cc1cc(C2CCN(C(=O)OC(C)(C)C)CC2)on1
6. CO[C@@H]1[C@@H](n2cc(-c3cc(F)c(F)c(F)c3)nn2)[C@@H](O)[C@@H](CO)O[C@H]1C(=O)N(c1cc(Br)cc(Br)c1)[C@H]1CCCC[C@@H]1O

1: 6.78; 2: 6.13; 3: 7.51; 4: 5.80; 5: 7.02; 6: 7.89

====

Several publications report IC50 on Galectin-3 (Homo sapiens); those values are gathered here.
Answers are plain numbers, in nM.

Some solved cases for reference:
INSERT INTO measurements (compound, quantity_name, value_units, readout_value) VALUES
  ('CO[C@@H]1[C@@H](n2cc(-c3cc(F)cc(Cl)c3)nn2)[C@@H](O)[C@@H](CO)O[C@H]1C(=O)N(c1cccc(Cl)c1)[C@H]1CCCC[C@@H]1O', 'IC50', 'nM', 24),
  ('CO[C@@H]1[C@@H](n2cc(-c3ccc(C)c(F)c3F)nn2)[C@@H](O)[C@@H](CO)O[C@@H]1CC1=NO[C@]2(CC[C@H](NCC(F)F)CC2)C1', 'IC50', 'nM', 120);

Proceed to the following item.
Give me measured IC50, please, for this compound: CO[C@@H]1[C@@H](n2cc(-c3cc(F)c(F)c(F)c3)nn2)[C@@H](O)[C@@H](CO)O[C@@H]1Cc1cn(C2CCS(=O)(=NC(C)C)CC2)nn1 (stereo partly drawn)
27

====

Several publications report pIC50 on Galectin-3 (Homo sapiens, UniProt P17931); those values are gathered here.
One number for each entry, as −log10 of the molar value.

Some solved cases for reference:
INSERT INTO assay_data (compound, readout_value) VALUES
  ('CO[C@@H]1[C@@H](n2cc(-c3cc(F)c(F)c(F)c3)nn2)[C@@H](O)[C@@H](CO)O[C@@H]1Cn1cnc(C(C)(C)C)c1', 6.74),
  ('CO[C@@H]1[C@@H](n2cc(-c3cc(F)c(F)c(F)c3)nn2)[C@@H](O)[C@@H](CO)O[C@H]1C(=O)N(Cc1ccnn1C)[C@H]1CCCC[C@@H]1O', 6.91),
  ('CO[C@@H]1[C@@H](n2cc(-c3ccc(Cl)c(F)c3F)nn2)[C@@H](O)[C@@H](CO)O[C@@H]1Cc1cc(C2CCCCC2)on1', 6.59),
  ('CO[C@@H]1[C@@H](n2cc(-c3cc(F)c(F)c(F)c3)nn2)[C@@H](O)[C@@H](CO)O[C@H]1C(=O)N(c1cccc(Br)c1)[C@H]1CCCC[C@@H]1O', 7.60),
  ('CO[C@@H]1[C@@H](n2cc(-c3ccc(Br)c(F)c3F)nn2)[C@@H](O)[C@@H](CO)O[C@@H]1Cc1cc(C2CCN(C(C)=O)CC2)on1', 7.42);

Could you report pIC50 for every entry in the following list?
1. CO[C@@H]1[C@@H](n2cc(-c3cc(F)c(F)c(F)c3)nn2)[C@@H](O)[C@@H](CO)O[C@H]1C(=O)N(c1cccc(Cl)c1)[C@H]1CC[C@@H]1O
2. CO[C@@H]1[C@@H](n2cc(-c3cc(F)cc(Br)c3)nn2)[C@@H](O)[C@@H](CO)O[C@H]1C(=O)N(c1cc(C)cc(C#N)c1)[C@H]1CCC[C@@H]1O
3. CO[C@@H]1[C@@H](n2cc(-c3cc(F)c(F)c(F)c3)nn2)[C@@H](O)[C@@H](CO)O[C@@H]1C[C@H]1CC(C2CCN(C(=O)OC(C)(C)C)CC2)=NO1
4. CO[C@@H]1[C@@H](n2cc(-c3cc(F)c(F)c(F)c3)nn2)[C@@H](O)[C@@H](CO)O[C@@H]1Cc1cc(C2COC2)on1

[6.96, 6.80, 6.18, 6.46]

====

Several publications report pIC50 on Galectin-3 (Homo sapiens, UniProt P17931); those values are gathered here.
Numbers only, as −log10 of the molar value.

Some solved cases for reference:
INSERT INTO measurements (molecule, readout_value) VALUES
  ('COC(=O)CO[C@@H]1[C@@H](n2cc(-c3cc(F)c(F)c(F)c3)nn2)[C@@H](O)[C@@H](CO)O[C@@H]1CC1CC(C2CCN(C(=O)OC(C)(C)C)CC2)=NO1 (mixture of isomers)', 6.51),
  ('CO[C@@H]1[C@@H](n2cc(-c3cc(F)c(C)c(F)c3)nn2)[C@@H](O)[C@@H](CO)O[C@H]1C(=O)N(c1cc(Cl)cc(Cl)c1)[C@H]1CCC[C@@H]1O', 7.35),
  ('CO[C@@H]1[C@@H](n2cc(-c3ccc(Cl)c(F)c3F)nn2)[C@@H](O)[C@@H](CO)O[C@@H]1CC1=NOC2(CCCCC2)C1', 7.12),
  ('CO[C@@H]1[C@@H](n2cc(-c3ccc(Cl)c(F)c3F)nn2)[C@@H](O)[C@@H](CO)O[C@@H]1Cc1cc(C2CCC2)on1', 7.11);

Could you report pIC50 for every entry in the following list?
1. COc1cccc(-c2cn([C@H]3[C@@H](O)[C@@H](CO)O[C@H](CC4CC(C5CCN(C(=O)OC(C)(C)C)CC5)=NO4)[C@@H]3O)nn2)c1 (stereo partly shown)
2. CO[C@@H]1[C@@H](n2cc(-c3cc(F)c(F)c(F)c3)nn2)[C@@H](O)[C@@H](CO)O[C@H]1C(=O)N(c1ccc2ccsc2c1)[C@H]1CCCC[C@@H]1O
3. CO[C@@H]1[C@@H](n2cc(-c3cc(F)c(F)c(F)c3)nn2)[C@@H](O)[C@@H](CO)O[C@@H]1CC1=NOC2(CCC2)C1

[5.85, 7.37, 6.21]
